tested on: KM12; assay: NCI tumour cell line growth inhibition, 48 h
The source made the active and inactive calls. No stated cut-off is given here; in the data, active = GI50 up to about 1.1 µM and inactive = higher.
// allowed return values: active, inactive

{"compound": "O=C(NCCC1CNc2ccccc21)OCc1ccccc1 (stereo not drawn)", "class.label": "inactive"}
{"compound": "COc1ccc(N(C(=O)Nc2ccc(Cl)c(Cl)c2)C2c3cccn3C(=O)N2c2ccc(Cl)c(Cl)c2)cc1 (stereo not drawn)", "class.label": "inactive"}
{"compound": "N#Cc1c(Cl)c2ccccc2n2c1nc1ccccc12", "class.label": "inactive"}
{"compound": "CCOC(=O)C1N(S(=O)(=O)c2ccc(C)cc2)CCC12c1ccccc1NC2c1ccc(OC)c(OC)c1 (stereo not drawn)", "class.label": "inactive"}
{"compound": "OCCSCC/C(=N\\N=C(/CCSCCO)c1ccccc1)c1ccccc1", "class.label": "inactive"}

Ask: Assay result, entry CC1CCC2(NC1)OC1CC3C4CC=C5CC(OC6OC(CO)C(OC7OC(C)C(O)C(O)C7O)C(O)C6OC6OC(C)C(O)C(O)C6O)CCC5(C)C4CCC3(C)C1C2C (stereo not drawn) — outcome?
Reply: inactive

Ask: Fill in: this test's call for "N=C(N)Cn1cnc2ccccc21" is ___
Reply: inactive

Ask: Dear colleague, could you share the recorded outcome for C[N+]1(CCNP(=S)(NCC[N+]2(C)Cc3c(ccc4c3OCO4)C3C2c2cc4c(cc2C[C@@H]3O)OCO4)NCC[N+]2(C)Cc3c(ccc4c3OCO4)C3C2c2cc4c(cc2C[C@@H]3O)OCO4)Cc2c(ccc3c2OCO3)C2C1c1cc3c(cc1C[C@H]2O)OCO3 (stereo partly drawn) when you have a moment?
Reply: active
